- Target desc: HIV-1 Env of isolate MGRM-G-006 (subtype G), on pseudovirus (HIV-1)
- Measurement description: cell-based or functional assay
Parameter: IC50 (µg/mL), neutralization of pseudovirus

## Input Give the measured IC50 (µg/mL), neutralization of pseudovirus of PGT-136 (antibody, V domains shown) VH: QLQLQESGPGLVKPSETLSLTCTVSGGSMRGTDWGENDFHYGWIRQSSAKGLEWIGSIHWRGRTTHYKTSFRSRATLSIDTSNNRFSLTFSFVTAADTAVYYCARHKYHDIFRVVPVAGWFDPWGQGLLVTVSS VL: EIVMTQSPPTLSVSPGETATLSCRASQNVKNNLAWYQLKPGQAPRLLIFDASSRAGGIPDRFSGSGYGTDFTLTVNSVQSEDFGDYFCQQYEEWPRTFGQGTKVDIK .
## Output > 50 µg/mL
